All figures here come from the supplement of paper PMC9732359.

List of protein stability index values.
experiment: protein stability index of a GFP-peptide fusion (yeast GPS) (PSI 1-4); higher = more stable; sorted into four equal gates, so the index is relative within each strain; conditions: doa10∆
Give the figure by itself; no unit, no explanation.

Known results for sequences:
IIPTTLEEQQQLEDESS [YML103C/NUP188] : 1.88
GLMLGEFVDDYTVNVVD [RPN11] : 3.32
NSNKQAVAILADDEKSD [BRR2] : 3.04

Name the recorded protein stability index of the item AQDFINAYASFLQRQGK [RPS19A] in your answer.
2.91

Name the recorded protein stability index of the item PGVDVSAEEQLRKIDML [SRB7] in your answer.
2.9

Name the recorded protein stability index of the item EPFFLVTKITDMLLHKY [SRB8] in your answer.
2.86

Name the recorded protein stability index of the item RCIGDSDNVSFEIQGVP [YMR129W/POM152] in your answer.
3.17

Name the recorded protein stability index of the item TTNLDIDLLTFQYGSRL [RPP1] in your answer.
3.29

Name the recorded protein stability index of the item GMIVISMENYHLLIKII [SRB8] in your answer.
1.96

Name the recorded protein stability index of the item RQVYKPVLDNPFTNEAH [POP3] in your answer.
2.47

Name the recorded protein stability index of the item TQTESKKEENETISNVA [SNF2] in your answer.
3.07

Name the recorded protein stability index of the item LEVFHHFFKWIEFIVYH [SRB8] in your answer.
1.13

Name the recorded protein stability index of the item TYEAIEITDAYCFAKND [YMR129W/POM152] in your answer.
2.93

Name the recorded protein stability index of the item KYSAITSSIFQESFNSV [NUT1] in your answer.
2.22

---

List of protein stability index values.
experiment: protein stability index of a GFP-peptide fusion (yeast GPS) (PSI 1-4); higher = more stable; sorted into four equal gates, so the index is relative within each strain; conditions: san1∆
Give the figure by itself; no unit, no explanation.

MFLYILKHLEEMGKLRE [RRI2] : 3.04
RYLDNLKQEIDRGLSIK [SNU114] : 3.4
RELTKNILWRIADKTTY [SIR4] : 2.68
MVSTPELKKYMDKKILL [SMX2] : 3.26

Name the recorded protein stability index of the item LPENIILTSLMRSKLEK [CSN9] in your answer.
2.78

Name the recorded protein stability index of the item FFLRDTLLWNKNDKLIK [SNF5] in your answer.
2.06

Name the recorded protein stability index of the item WTEKKGKNVINRERFIS [SMD2] in your answer.
1.11

Name the recorded protein stability index of the item QQLNKQRQDFERVRLRP [SNF6] in your answer.
2.75

Name the recorded protein stability index of the item GEINKICMESLFLEPSW [PCI8] in your answer.
2.03

Name the recorded protein stability index of the item FKDVEHISFNFSMLQMA [BRR2] in your answer.
2.33

Name the recorded protein stability index of the item EKLDVSRSSVCVKAIEA [YCG1] in your answer.
2.08

---

assay: protein stability index of a GFP-peptide fusion (yeast GPS) (PSI 1-4); higher = more stable; sorted into four equal gates, so the index is relative within each strain; settings: doa10∆
protein stability index vs 2: at or above is t, below is f.

PPDSDSSISVMGENEKP [RPT3] : f
NVLNQINQIFSPEEQRS [GAL11] : t
VAESFTDEADSSMTEAS [SNF2] : t

Entry YMEPFDLDLNEQVRKMY [NSL1] : is its protein stability index no less than 2?
t

Entry EDNAGVIANPKGEMKGS [RPL23A] : is its protein stability index no less than 2?
f

Entry HKSPNLSLMLESPNYCN [SRB4] : is its protein stability index no less than 2?
t

Entry YIRKLISSGLLYLQDSN [SRB8] : is its protein stability index no less than 2?
f

Entry YIEDFLLVIGGNQRKIL [YJR042W/NUP85] : is its protein stability index no less than 2?
f

Entry EILYYQIKTLPEQYSDI [AAR2] : is its protein stability index no less than 2?
t

Entry MISIIKLVTNVVDPKTS [YML103C/NUP188] : is its protein stability index no less than 2?
f

Entry AQDEVFSLAFSPNRYWL [ASC1] : is its protein stability index no less than 2?
t

Entry SRSRSSIRSISPAGKYK [ESC2] : is its protein stability index no less than 2?
t

Entry VDDAIELALKTLSKTTD [PRE9] : is its protein stability index no less than 2?
t

---

assay: protein stability index of a GFP-peptide fusion (yeast GPS) (PSI 1-4); higher = more stable; sorted into four equal gates, so the index is relative within each strain; conditions: doa10∆
protein stability index vs 3: at or above is 1 (yes), below is 0 (no).

These solved cases illustrate the format of a correct answer.
MYCRPAPSDFSENQRQI [GRR1] : 1 (yes)
GVYKRDNRTKSTTIKNI [SMC4] : 0 (no)
NLDSSITQDGKFAYKID [YMR129W/POM152] : 0 (no)
LQNKSFKSVLPIVLLNT [UBP6] : 0 (no)
NEYVAKVSAREKSAYKF [FAS2] : 1 (yes)
FKATIQILQGICKNCSA [RPO31] : 0 (no)
LSSELDSNKTLLHNHLK [SMC2] : 1 (yes)
WTEKKGKNVINRERFIS [SMD2] : 0 (no)
IQVLTEASSLGYLDDSE [IRR1] : 0 (no)
GEINKICMESLFLEPSW [PCI8] : 0 (no)

Next up:
Entry EVYRTSLNTKKNEKLIL [SMC3] : is its protein stability index no less than 3?
0 (no)

---

assay: protein stability index of a GFP-peptide fusion (yeast GPS) (PSI 1-4); higher = more stable; sorted into four equal gates, so the index is relative within each strain; conditions: ubr1∆
Reported Property: protein stability index

Known results for sequences:
RFDAQTGSDREVQRILI [RPT3] : 3.4
IISSNENALIELKNELA [YIL149C/MLP2] : 3.07
DEKKDSDSSKPAFSFGT [YJL041W/NSP1] : 2.97
QEMIEISNVIKPNQTIM [SRP54] : 1.96
LPLTEHKSPNLSLMLES [SRB4] : 2.75

Name the recorded protein stability index of the item KLNELDELILEAKERYT [NNF1] in your answer.
2.82

Name the recorded protein stability index of the item LTEGGSILEEKIAVLNN [SMC1] in your answer.
2.87

Name the recorded protein stability index of the item GIRVQDSVILASSKAVT [PRE1] in your answer.
2.38

---

experiment: protein stability index of a GFP-peptide fusion (yeast GPS) (PSI 1-4); higher = more stable; sorted into four equal gates, so the index is relative within each strain; details: doa10∆
protein stability index vs 2: at or above is fulfilled, below is not fulfilled.

DWGQALRLLLLLIEFPY [YJR042W/NUP85] : not fulfilled
TKPSDLTIKDIVLGVKD [RPO21] : fulfilled
ARTAANSIYCPTQTVAE [RPN6] : fulfilled
LSEEETLLVIRRLHKVL [SNF2] : not fulfilled

Entry NVMTPREQYETQVALNE [UBP6] : is its protein stability index no less than 2?
fulfilled

Entry SVLLQQLLTPGSKISSN [YGL172W/NUP49] : is its protein stability index no less than 2?
fulfilled

Entry AFETHYRRLFAKRLIHG [CDC53] : is its protein stability index no less than 2?
fulfilled

Entry FRPIEIFTDFLPSSNGS [RRP42] : is its protein stability index no less than 2?
fulfilled

Entry PRALQPSQFGMLCTADT [RET1] : is its protein stability index no less than 2?
not fulfilled

---

test: protein stability index of a GFP-peptide fusion (yeast GPS) (PSI 1-4); higher = more stable; sorted into four equal gates, so the index is relative within each strain; conditions: ubr1∆
Reported Property: protein stability index

Known results for sequences:
IIAVKGSGSRLNRLPAA [RPL23A] : 1.42
ALRRRVGPSEQNFAEED [REC8] : 3.24
EIITSLSMRFQRETSGM [SRB8] : 2.47
KKNIDYQNRSTRSQFCL [RRI1] : 3.08
TEVRAEDEAALAKLVST [RPL8A] : 2.74
QVVLGGTSKYLINGHRA [SMC2] : 2.96

Name the recorded protein stability index of the item EPAEANEENDLDVDPAK [RPB2] in your answer.
3.41

---

List of protein stability index values.
assay: protein stability index of a GFP-peptide fusion (yeast GPS) (PSI 1-4); higher = more stable; sorted into four equal gates, so the index is relative within each strain; conditions: san1∆
Give the figure by itself; no unit, no explanation.

Known results for sequences:
DEKKDSDSSKPAFSFGT [YJL041W/NSP1] : 3.07
KSFISKLLGIGDIESLF [SRP54] : 2.2
RRREQTTYSVDDYYKEI [ISW2] : 1.91
TKFLAKNGVIPEESKGS [SWP82] : 2.98
IHSGVLSSIESDLKKRE [YMR153W/NUP53] : 3.1

Name the recorded protein stability index of the item KLINIKKFDISNDNLDL [MED1] in your answer.
2.48

Name the recorded protein stability index of the item IIAVKGSGSRLNRLPAA [RPL23A] in your answer.
1.23

Name the recorded protein stability index of the item MSGSLSRGNGGKKVLNK [POP1] in your answer.
1.32
